# System: PC26
# assay_explanation: qHTS profiling for inhibitors of Plasmodium falciparum proliferation (AID 504749); note: nearly all actives have a fitted effect of over 60% in size
# test_settings: P. falciparum in erythrocytes, SYBR Green DNA, 72 h; series mostly up to 12.8 µM
Results filed as inconclusive are left out. Calls of active or inactive are those of the source. Calls come from the whole dose curve; as a rule, active = well fitted inhibition curve with a large enough effect; inconclusive = small, poorly fitted or top-dose-only effect; inactive = flat fitted curve, though single readings scatter.
Hello, when you answer, please use one of the following outcomes: t (active), f (inactive)

Before answering, review these 4 worked examples.
>  <compound>
C[C@@]12CCC(=O)C=C1C=CC1C2CC[C@]2(C)C1CC[C@@]21CCC(=O)O1 (stereo partly specified)

>  <class_name>
f

$$$$
>  <compound>
CNC1C(OC2C(O[C@@H]3C(O)C(O)[C@@H](N=C(N)N)C(O)C3N=C(N)N)OC(C)[C@@]2(O)CO)OC(CO)C(O)C1O (stereo partly specified)

>  <class_name>
f

$$$$
>  <compound>
CC(C)(C)NC[C@H](O)COc1cccc2c1C[C@@H](O)[C@@H](O)C2

>  <class_name>
f

$$$$
>  <compound>
CC(C)NC[C@H]1CCc2cc(CO)c([N+](=O)[O-])cc2N1

>  <class_name>
f

$$$$

Please look at the following compound next.
# input What was the test verdict on CCOC(=O)[C@H](CCc1ccccc1)N[C@@H](C)C(=O)N1[C@H](C(=O)O)C[C@H]2CCC[C@@H]21 ?
# output f

* * *

# assay_system: Rap guanine nucleotide exchange factor 4 (Homo sapiens) (UniProt Q8WZA2)
# Sequence (Q8WZA2 whole entry, looked up): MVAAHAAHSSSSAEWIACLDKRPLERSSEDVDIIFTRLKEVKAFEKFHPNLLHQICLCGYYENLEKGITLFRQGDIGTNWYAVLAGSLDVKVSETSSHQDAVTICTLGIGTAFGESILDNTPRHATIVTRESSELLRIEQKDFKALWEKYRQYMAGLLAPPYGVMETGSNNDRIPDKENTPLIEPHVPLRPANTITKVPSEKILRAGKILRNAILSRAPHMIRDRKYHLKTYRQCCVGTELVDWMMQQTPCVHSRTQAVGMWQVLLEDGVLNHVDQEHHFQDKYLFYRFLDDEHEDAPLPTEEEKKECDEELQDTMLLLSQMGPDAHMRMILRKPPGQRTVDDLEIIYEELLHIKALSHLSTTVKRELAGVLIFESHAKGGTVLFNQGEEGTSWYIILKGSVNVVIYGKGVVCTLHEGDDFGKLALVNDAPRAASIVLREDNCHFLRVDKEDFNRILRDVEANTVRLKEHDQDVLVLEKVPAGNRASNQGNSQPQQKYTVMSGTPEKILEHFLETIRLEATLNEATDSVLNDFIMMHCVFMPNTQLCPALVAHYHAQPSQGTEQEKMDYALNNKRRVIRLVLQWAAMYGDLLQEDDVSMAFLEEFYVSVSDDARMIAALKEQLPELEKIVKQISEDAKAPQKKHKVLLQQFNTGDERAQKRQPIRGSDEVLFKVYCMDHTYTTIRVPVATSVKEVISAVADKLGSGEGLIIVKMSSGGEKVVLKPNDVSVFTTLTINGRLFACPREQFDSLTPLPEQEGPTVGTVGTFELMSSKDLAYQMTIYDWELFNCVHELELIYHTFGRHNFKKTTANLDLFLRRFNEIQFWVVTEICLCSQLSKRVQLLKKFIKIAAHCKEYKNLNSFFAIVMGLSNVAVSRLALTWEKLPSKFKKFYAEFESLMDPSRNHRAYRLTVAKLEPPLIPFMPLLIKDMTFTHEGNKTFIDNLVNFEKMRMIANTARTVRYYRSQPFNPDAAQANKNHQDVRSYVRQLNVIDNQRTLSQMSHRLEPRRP
# assay_explanation: Confirmatory qHTS for antagonist of cAMP-regulated guanine nucleotide exchange factor 4 (EPAC2) (AID 1645885); note: nearly all actives have a fitted effect of over 25% in size
# test_settings: EPAC2 Rap1B-BODIPY-GDP exchange fluorescence, biochemical; series mostly up to 12.7 µM
Inconclusive results are not listed. Activity calls are given as the source filed them. Calls follow the shape of the dose curve; as a rule, active = well fitted inhibition curve with a large enough effect; inconclusive = small, poorly fitted or top-dose-only effect; inactive = no such curve, though single readings can be large or run the other way.
Hello, when you answer, please use one of the following outcomes: true = active, false = inactive

Before answering, review these 5 worked examples.
>  <compound>
COc1cccc2c(N/N=C/c3ccco3)cc(C)nc12

>  <assay_system>
Rap guanine nucleotide exchange factor 4 (Homo sapiens) (UniProt Q8WZA2)

>  <class_name>
false

$$$$
>  <compound>
O=C1S/C(=C\c2ccc(N3CCOCC3)o2)C(=O)N1c1ccccc1

>  <assay_system>
Rap guanine nucleotide exchange factor 4 (Homo sapiens) (UniProt Q8WZA2)

>  <class_name>
false

$$$$
>  <compound>
Cc1ccc(S(=O)(=O)N2CCN(CC(=O)Nc3ccccc3C(=O)NC3CC3)CC2)cc1

>  <assay_system>
Rap guanine nucleotide exchange factor 4 (Homo sapiens) (UniProt Q8WZA2)

>  <class_name>
false

$$$$
>  <compound>
CCN(CC)CCn1c2c(c(SCC(=O)Nc3nc4ccccc4s3)nc1=O)CCCC2

>  <assay_system>
Rap guanine nucleotide exchange factor 4 (Homo sapiens) (UniProt Q8WZA2)

>  <class_name>
false

$$$$
>  <compound>
COc1cc(OC)nc(Oc2cc(/C=N/O)ccc2OC)n1

>  <assay_system>
Rap guanine nucleotide exchange factor 4 (Homo sapiens) (UniProt Q8WZA2)

>  <class_name>
false

$$$$

# input What was the test verdict on Cc1cccc(-n2nc(C)c(C(=O)Nc3cc(C)ccc3C)c2-n2cccc2)c1 ?
# output false

# input What was the test verdict on COCCn1c(SCC(=O)Nc2ccc3c(c2)CCC3)nc2ccccc2c1=O ?
# output false

# input What was the test verdict on Cc1cccc(C(=O)Nc2cccc(C(=O)OCc3cc(=O)n4c5c(sc4n3)CCCC5)c2)c1 ?
# output false

# input What was the test verdict on C=CCc1ccccc1Oc1cc(OC)nc(N)n1 ?
# output false

# input What was the test verdict on CCCOc1c(OC)cccc1C1CC(=O)Nc2cc(OC)c(OC)c(OC)c21 (stereo not drawn) ?
# output false

# input What was the test verdict on O=C1NC(=Nc2ccccc2Cl)S/C1=C\c1cccc([N+](=O)[O-])c1O ?
# output false
